pKd overview
experimental target: T1, Human ALPP (leucine zipper) (human)
T1 construct: Whole entry: ALPP fused with a cysteine stabilised leucine zipper and His tag; also called hALPP
T1 chain: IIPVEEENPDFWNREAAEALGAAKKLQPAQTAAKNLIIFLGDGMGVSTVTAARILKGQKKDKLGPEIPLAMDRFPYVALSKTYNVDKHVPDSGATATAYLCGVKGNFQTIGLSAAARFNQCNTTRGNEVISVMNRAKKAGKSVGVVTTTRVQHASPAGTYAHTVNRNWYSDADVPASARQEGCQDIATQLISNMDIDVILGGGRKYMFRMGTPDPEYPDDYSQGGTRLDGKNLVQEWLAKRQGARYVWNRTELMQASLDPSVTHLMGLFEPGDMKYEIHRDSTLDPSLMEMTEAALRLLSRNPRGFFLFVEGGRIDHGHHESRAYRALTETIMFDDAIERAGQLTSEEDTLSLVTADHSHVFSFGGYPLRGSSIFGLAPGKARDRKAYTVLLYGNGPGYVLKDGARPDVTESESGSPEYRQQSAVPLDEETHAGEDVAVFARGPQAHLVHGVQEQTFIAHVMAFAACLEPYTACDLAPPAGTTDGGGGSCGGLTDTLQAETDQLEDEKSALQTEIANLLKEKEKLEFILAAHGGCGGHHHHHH
assay notes: BLI, antigen immobilised
The meaning of pKd here: minus log10 of the concentration in molar units.

1. C07 His (VHH, not shown: small tags and cut ends, also called #258) VHH: QVQLVESGGGLVQAGESLRLACAASGTIFSGNAVGWYRQAPEKQREWVSSITDYGDTDYAEAVKGRFTISRDNAKNTVYLQMNSLKPEDTAVYYCYVYQRGESEEYWGQGTQVTVSS; 9.66

# context switch: different binder, same pKd
Task: pKd for A08 (VHH, not shown: small tags and cut ends) VHH: QVQLVESGGGLVQAGESLRLACAASGTIFSGNAVGWYRQAPEKQREWVSSITDYGDTDYAEAVKGRFTISRDNAKNTVYLQMNSLKPEDTAVYYCYVYQRGESEEYWGQGTKVTVSS ?
Output: 10.52
